Reference for the values: patent US20250319019A1

- measurementDescription: In-vivo pharmacokinetic evaluation, single dose
- Parameters: species or system New Zealand White rabbits
- conditionsUsed: New Zealand White, whole blood, 1 mg; heading: Average Tac conc.; rabbit blood, 2.0 (120 mins) after single 1 mg dose (oral or buccal patch)
assayMetric: concentration at 2 h (ng/mL)

>>> measurednumber("C=CC[C@@H]1/C=C(\\C)C[C@H](C)C[C@H](OC)[C@H]2O[C@@](O)(C(=O)C(=O)N3CCCC[C@H]3C(=O)O[C@H](/C(C)=C/[C@@H]3CC[C@@H](O)[C@H](OC)C3)[C@H](C)[C@@H](O)CC1=O)[C@H](C)C[C@@H]2OC (relative stereo) [Tacrolimus, monohydrate]")
31.3
